# experimental.protocol: refractive index (Na D-line) (dimensionless)
# run.parameters: 303.15 K; 101.33 kPa; Liquid
recorded.endpoint: refractive index
One number for each entry.

A selection of reference data follows.
1. CCCCCCCCCCCC 1.4135
2. CCCCCC 1.3709

Required: refractive index, one value per molecule below.
1. CCCCCCCCCC
2. CCCCCCCCC
3. COc1ccccc1
4. CCCCCCC
5. CCCCCCCC

[1.4089, 1.4002, 1.5129, 1.3827, 1.3926]

----------
Assign mass density to each entry below.
# run.parameters: 298.15 K; 101 kPa; Liquid
± gives the expanded uncertainty stated by the source.
Please make sure the unit comes right after the number.

Example cases with answers are listed next.
molecule	mass density
CCCCCCCC [octane]	698.57 ± 0.85 kg/m3
CCCCCC [hexane]	654.96 ± 0.92 kg/m3
COc1ccccc1 [anisole]	989.15 ± 0.53 kg/m3

Value sought for every listed molecule: mass density.
1. CCCCCCCCCC [decane]
2. CCCCCCC [heptane]
3. CCCCCCCCCCCC [dodecane]
4. CCCCCCCCC [nonane]

726.16 ± 0.8 kg/m3
679.77 ± 0.88 kg/m3
745.14 ± 0.77 kg/m3
713.71 ± 3 kg/m3

----------
# run.parameters: 303.15 K; 101 kPa; Liquid
recorded.endpoint: viscosity (mPa·s)
Answers are plain numbers, in mPa·s.

Report viscosity for every entry below.
1. CCCCCCCCCCCC
2. CCCCCC

1.25
0.2838

Go through the items and report each one's viscosity.
1. CCCCCCCCC
2. CCCCCCCC
3. COc1ccccc1
4. CCCCCCCCCC
5. CCCCCCC

[0.6307, 0.483, 0.9285, 0.7898, 0.3702]

----------
# experimental.protocol: refractive index (Na D-line) (dimensionless)
# run.parameters: 298.15 K; 101.33 kPa; Liquid
Could you please report measured refractive index for the items listed next?
Give bare numbers.

compound	measured
CCCCCCCCCCCC [dodecane]	1.4172
CCCCCCC [heptane]	1.3855
COc1ccccc1 [anisole]	1.5141
CCCCCCCCCC [decane]	1.4118

For each listed entry, give its refractive index.
1. CCCCCCCC [octane]
2. CCCCCC [hexane]
3. CCCCCCCCC [nonane]

1. 1.3947
2. 1.3732
3. 1.4027

----------
# run.parameters: 293.15 K; 101 kPa; Liquid
recorded.endpoint: viscosity (mPa·s)
One number for each entry, in mPa·s.

compound	units.symbol	viscosity
CCCCCCCCCC [decane]	mPa·s	0.9169
CCCCCC [hexane]	mPa·s	0.3114

List the reported viscosity of each compound below.
1. CCCCCCCCCCCC [dodecane]
2. CCCCCCCC [octane]
3. CCCCCCC [heptane]
4. CCCCCCCCC [nonane]
5. COc1ccccc1 [anisole]

[1.487, 0.5464, 0.4127, 0.7136, 1.085]

----------
# run.parameters: 298.15 K; 101 kPa; Liquid
Assign labels as follows, please: True for viscosity below 0.5 mPa·s; False for viscosity equal to or exceeding 0.5 mPa·s.

Answered cases to consult:
1. CCCCCCCCCCCC False
2. CCCCCCCCC False
3. CCCCCCCCCC False
4. COc1ccccc1 False

is_below(viscosity, 0.5 mPa·s) for "CCCCCCC" ?
True

Could you please tell me whether viscosity recorded for "CCCCCC" is less than 0.5 mPa·s?
True
